Target: human β-Secretase (soluble part, AA1-AA460; sBACE-Fc) (Homo sapiens, UniProt P56817)
Construct: The soluble part of the human β-Secretase (AA1-AA460) was cloned into the ASP2-Fc10-1-IRES-GFP-neoK mammalian expression vector; made in house
Sequence (P56817 22-460): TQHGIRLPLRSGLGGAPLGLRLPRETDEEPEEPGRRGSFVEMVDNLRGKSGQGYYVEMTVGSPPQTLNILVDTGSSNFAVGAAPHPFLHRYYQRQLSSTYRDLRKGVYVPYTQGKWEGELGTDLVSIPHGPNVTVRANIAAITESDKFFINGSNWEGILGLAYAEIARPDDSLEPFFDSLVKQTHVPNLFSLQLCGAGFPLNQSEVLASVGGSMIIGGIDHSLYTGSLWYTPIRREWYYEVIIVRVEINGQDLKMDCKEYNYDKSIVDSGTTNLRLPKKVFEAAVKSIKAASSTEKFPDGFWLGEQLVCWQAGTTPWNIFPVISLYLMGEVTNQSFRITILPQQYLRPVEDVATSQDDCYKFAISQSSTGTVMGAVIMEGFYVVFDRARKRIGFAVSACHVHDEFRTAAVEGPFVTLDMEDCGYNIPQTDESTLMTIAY
Assay: TR-FRET assay
Type: biochemical
Conditions: substrate (Europium)CEVNLDAEFK(Qsy7) 100 nM, pH 4.5, 15 min at RT; read-out: IC50 (nM) in TR-FRET assay
recorded_metric: IC50

Here is how some molecules turned out for IC50.
[[record]]
molecule = "CN1C(=O)C(c2ccc(OS(C)(=O)=O)cc2)(c2ccc(F)c(CCC3CC3)c2)N=C1N (stereo not shown) [Example 79]"
recorded_metric = "IC50"
result = "552 nM"

[[record]]
molecule = "CN1C(=O)C(c2cccc(OS(=O)(=O)N(C)C)c2)(c2ccc(F)c(-c3cccnc3)c2)N=C1N (stereo not shown) [Example 111]"
recorded_metric = "IC50"
result = "93 nM"

[[record]]
molecule = "CC(C)S(=O)(=O)Oc1cccc(C2(c3ccc(F)c(-c4cc(Cl)cc(Cl)c4)c3)N=C(N)N(C)C2=O)c1 (stereo not shown) [Example 109]"
recorded_metric = "IC50"
result = "263 nM"


Record summary for CN1C(=O)C(c2cccc(OS(C)(=O)=O)c2)(c2ccc(F)c(-c3cccnc3)c2)N=C1N (stereo not shown) [Example 90] : reported IC50 = 385 nM
